meta.source: patent USRE42890E1

I'd appreciate it if you could supply pIC50 values for the items below.
test system: HeLa; experiment: MTS proliferation assay, HeLa; type: cell-based, human; details: Homo sapiens, 72 h incubation, read-out: MTS proliferation assay IC 50 HeLa
pIC50: −log10 of the molar value.

Fill blank: measured pIC50 of the molecule Nc1nonc1-c1nc2ccccc2n1CC(=O)c1ccccc1 is ____.
6.00 to 7.00

What would you report for Nc1nonc1-c1nc2ccccc2n1COc1ccccc1 ?
6.00 to 7.00

What would you report for Nc1nonc1-c1nc2ccccc2n1CC(=O)/C=C/c1ccccc1 ?
< 6.00

What would you report for CN(C)c1nonc1-c1nc2ccccc2n1CC(=O)c1ccc(Cl)cc1 ?
6.00 to 7.00

What would you report for Nc1ccc(C(=O)Cn2c(-c3nonc3NCCC(=O)O)nc3ccccc32)cc1 ?
6.00 to 7.00

What would you report for COCOc1ccc(C(=O)Cn2c(-c3nonc3N)nc3ccccc32)cc1OC ?
7.00 to 8.00

What would you report for Nc1nonc1-c1nc2ccccc2n1CC(=NO)c1ccc(Br)cc1 ?
< 6.00

What would you report for Cc1ccc(OCn2c(-c3nonc3NCCC#N)nc3ccccc32)cc1C ?
6.00 to 7.00

What would you report for O=C(Cn1c(-c2nonc2NCCCO)nc2ccccc21)c1ccc(Cl)cc1 ?
6.00 to 7.00

What would you report for Nc1cc(C(=O)Cn2c(-c3nonc3N)nc3ccccc32)ccc1Cl ?
7.00 to 8.00

What would you report for Nc1nonc1-c1nc2ccccc2n1COc1ccc(F)cc1 ?
6.00 to 7.00

What would you report for N#CCCNc1nonc1-c1nc2ccccc2n1CC(=O)c1ccc(Cl)cc1 ?
7.00 to 8.00

What would you report for COC(=O)CCNc1nonc1-c1nc2ccccc2n1CC(=O)c1ccc(Cl)cc1 ?
6.00 to 7.00

What would you report for Nc1nonc1-c1nc2ccccc2n1CC(=O)c1ccc(Cl)c([N+](=O)[O-])c1 ?
6.00 to 7.00

What would you report for COc1cc(C(=O)Cn2c(-c3nonc3N)nc3ccccc32)ccc1O ?
6.00 to 7.00

What would you report for CC(=O)Nc1nonc1-c1nc2ccccc2n1CC(=O)c1ccc(Cl)cc1 ?
6.00 to 7.00
